Catalogue of cytotoxicity at 10 µM values
method_description: Toxicity liver stage against HepG2, at 10uM
Type: cell-based
Parameters: test concentration 10 uM, cell line HepG2-A16-CD81EGFP
run_parameters: human, HepG2-A16-CD81EGFP cells; read-out: INHIBITION
Unit % implied. Number only.

# example entries with known answers
Cn1cc(CCNC(=O)N2CCCC(c3nncn3C)C2)cn1 (centres undefined): -4.41
Cc1noc(C(C)C)c1C(=O)N1CCOCC1CC(=O)c1ccco1 (centres undefined): 2.09

QUERY: Value lookup for cytotoxicity at 10 µM; key = COc1ccc(F)cc1C(=O)N1CCCC(n2nc(C)nc2C)C1 (centres undefined)
RESULT: 3.05

QUERY: Return reported cytotoxicity at 10 µM; argument: CC(c1ncc(C(C)(C)C)o1)N1CCN(Cc2ccc(Cl)s2)CC1 (centres undefined)
RESULT: -1.21

QUERY: Which value of cytotoxicity at 10 µM has been reported for "CC(C)c1nc(N2CCC(N3CCSCC3)CC2)c2cnn(C)c2n1" in the records?
RESULT: -136

QUERY: Fill blank: measured cytotoxicity at 10 µM of the compound CNC(=O)C1CCCCN1C(=O)Cc1csc(-c2ccc(C)o2)n1 (centres undefined) is ____.
RESULT: 8.61

QUERY: I'd like to know its cytotoxicity at 10 µM. The compound in question is "Cc1cc(N2CCCN(C(=O)Cc3csc(C)n3)CC2)ccn1"
RESULT: -12
